Target: PIM1 (Homo sapiens)
Sequence (P11309 whole entry): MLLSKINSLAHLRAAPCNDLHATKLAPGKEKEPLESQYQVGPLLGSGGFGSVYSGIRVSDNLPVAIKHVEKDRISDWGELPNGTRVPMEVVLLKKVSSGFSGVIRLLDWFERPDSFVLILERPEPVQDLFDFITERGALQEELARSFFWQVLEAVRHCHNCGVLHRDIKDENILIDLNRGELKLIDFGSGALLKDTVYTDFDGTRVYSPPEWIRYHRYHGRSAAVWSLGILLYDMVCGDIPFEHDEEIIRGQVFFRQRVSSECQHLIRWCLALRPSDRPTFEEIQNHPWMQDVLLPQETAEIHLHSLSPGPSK
Assay: Radiometric kinase assay (HotSpot)
Conditions: ratio of IC50 values
For each record, write down the corresponding Selectivity for Pim-1 over CK2α.
# print the numeric value only

Please report the recorded Selectivity for Pim-1 over CK2α for Brc1c(Br)c(Br)c2[nH]c(NCCCn3ccnc3)nc2c1Br .
5.1

Please report the recorded Selectivity for Pim-1 over CK2α for Brc1c(Br)c(Br)c2[nH]c(NCCN3CCOCC3)nc2c1Br .
101.6

Please report the recorded Selectivity for Pim-1 over CK2α for CN(C)c1nc2c(Br)c(Br)c(Br)c(Br)c2n1CC(=O)O [Compound K66, reference compound] .
1.1

Please report the recorded Selectivity for Pim-1 over CK2α for Nc1ccc(Nc2nc3c(Br)c(Br)c(Br)c(Br)c3[nH]2)cc1 .
1.3

Please report the recorded Selectivity for Pim-1 over CK2α for NCC(O)CNc1nc2c(Br)c(Br)c(Br)c(Br)c2[nH]1 (stereo not drawn) .
12.0

Please report the recorded Selectivity for Pim-1 over CK2α for NCCCCNc1nc2c(Br)c(Br)c(Br)c(Br)c2[nH]1 .
74.2

Please report the recorded Selectivity for Pim-1 over CK2α for NCCCNc1nc2c(Br)c(Br)c(Br)c(Br)c2[nH]1 .
211.7

Please report the recorded Selectivity for Pim-1 over CK2α for Brc1c(Br)c(Br)c2[nH]c(NCCN3CCCCC3)nc2c1Br .
98.2

Please report the recorded Selectivity for Pim-1 over CK2α for Brc1c(Br)c(Br)c2c(Br)n[nH]c2c1Br [Compound K64, reference compound] .
2.1
